test: Drug uptake in human Caco-2 cells at 5 uM incubated for 10 mins in presence of fexofenadine by HPLC-MS/MS analysis; format: ADME, cell-based; conditions: caco-2, 10 min

Compound: CC[C@H](C)[C@H](NC(=O)Oc1c(-c2ccc(OC)cc2)oc2c3c(cc(O)c2c1=O)OC(C)(C)CC3)C(=O)O
Drug uptake: Not Active

Compound: COc1ccc(-c2oc3c4c(cc(O)c3c(=O)c2OC(=O)N[C@@H](CC(C)C)C(=O)O)OC(C)(C)CC4)cc1
Drug uptake: Not Active

Compound: COc1ccc(-c2oc3c4c(cc(O)c3c(=O)c2OC(=O)N[C@H](C(=O)O)C(C)C)OC(C)(C)CC4)cc1
Drug uptake: Not Active

====

assay: Aqueous solubility of the compound incubated for 72 hrs by shake-flask method; format: physicochemical; conditions: buffer
Experimental endpoint: solubility thermodynamic at 72 h
Kindly format the answer as number then unit.

Example compounds with recorded solubility thermodynamic at 72 h:
Compound: COc1ccc(-c2oc3c4c(cc(O)c3c(=O)c2OC(=O)N[C@@H](CC(C)C)C(=O)O)OC(C)(C)CC4)cc1
Measured: 13 µM
//
Compound: CC[C@H](C)[C@H](NC(=O)Oc1c(-c2ccc(OC)cc2)oc2c3c(cc(O)c2c1=O)OC(C)(C)CC3)C(=O)O
Measured: 11.4 µM
//
Compound: COc1ccc(-c2oc3c4c(cc(O)c3c(=O)c2OC(=O)N[C@H](C(=O)O)C(C)C)OC(C)(C)CC4)cc1
Measured: 5.69 µM
//
Compound: COc1ccc(-c2oc3c4c(cc(O)c3c(=O)c2OC(=O)N[C@@H](CCC(=O)O)C(=O)O)OC(C)(C)CC4)cc1
Measured: 1.1 µM
//
Compound: COc1ccc(-c2oc3c4c(cc(O)c3c(=O)c2OC(=O)N[C@@H](Cc2ccccc2)C(=O)O)OC(C)(C)CC4)cc1
Measured: 2.68 µM
//
Compound: COc1ccc(-c2oc3c4c(cc(O)c3c(=O)c2OC(=O)NCC(=O)O)OC(C)(C)CC4)cc1
Measured: 3.64 µM

COc1ccc(-c2oc3c4c(cc(O)c3c(=O)c2O)OC(C)(C)CC4)cc1 has a reported solubility thermodynamic at 72 h of 0.81 µM

====

experiment: Cmax in male Sprague-Dawley rat at 20 mg/kg, po measured up to 12 hrs in presence of fexofenadine by HPLC-MS/MS analysis; assay type: ADME, organism-based; settings: in vivo, with fexofenadine (dose not stated)
Experimental endpoint: Cmax (nM)
Reply numerically in nM, unit not repeated.

COc1ccc(-c2oc3c4c(cc(O)c3c(=O)c2OC(=O)N[C@@H](CC(C)C)C(=O)O)OC(C)(C)CC4)cc1 has a reported Cmax of 47.4

====

The following compounds are shown together with reported half-life at 10 µM values.
experiment: Stability at phase II in rat liver microsomes assessed as half life at 10 uM measured every 10 mins for 70 mins by HPLC-UV analysis; assay type: ADME, Microsome

Example compounds with recorded half-life at 10 µM:
Compound: COc1ccc(-c2oc3c4c(cc(O)c3c(=O)c2OC(=O)N[C@@H](CC(C)C)C(=O)O)OC(C)(C)CC4)cc1
half-life at 10 µM: > 1.16 h
//
Compound: COc1ccc(-c2oc3c4c(cc(O)c3c(=O)c2O)OC(C)(C)CC4)cc1
half-life at 10 µM: 0.62 h
//
Compound: COc1ccc(-c2oc3c4c(cc(O)c3c(=O)c2OC(=O)N[C@H](C(=O)O)C(C)C)OC(C)(C)CC4)cc1
half-life at 10 µM: > 1.16 h
//
Compound: COc1ccc(-c2oc3c4c(cc(O)c3c(=O)c2OC(=O)NCC(=O)O)OC(C)(C)CC4)cc1
half-life at 10 µM: > 1.16 h

CC[C@H](C)[C@H](NC(=O)Oc1c(-c2ccc(OC)cc2)oc2c3c(cc(O)c2c1=O)OC(C)(C)CC3)C(=O)O has a reported half-life at 10 µM of > 1.16 h

COc1ccc(-c2oc3c4c(cc(O)c3c(=O)c2OC(=O)N[C@@H](Cc2ccccc2)C(=O)O)OC(C)(C)CC4)cc1 has a reported half-life at 10 µM of > 1.16 h

====

experiment: Octanol/water partition coefficient, logP of the compound incubated for 72 hrs by HPLC-MS/MS analysis; type: physicochemical
Binary label based on logP at 72 h with cut-off 3: below gives Met, not below gives Not met.

Please review the entries below; each comes with its answer.
Compound: COc1ccc(-c2oc3c4c(cc(O)c3c(=O)c2OC(=O)N[C@@H](Cc2ccccc2)C(=O)O)OC(C)(C)CC4)cc1
Class label: Not met
--
Compound: COc1ccc(-c2oc3c4c(cc(O)c3c(=O)c2O)OC(C)(C)CC4)cc1
Class label: Not met
--
Compound: COc1ccc(-c2oc3c4c(cc(O)c3c(=O)c2OC(=O)NCC(=O)O)OC(C)(C)CC4)cc1
Class label: Not met
--
Compound: COc1ccc(-c2oc3c4c(cc(O)c3c(=O)c2OC(=O)N[C@H](C(=O)O)C(C)C)OC(C)(C)CC4)cc1
Class label: Met
--
Compound: COc1ccc(-c2oc3c4c(cc(O)c3c(=O)c2OC(=O)N[C@@H](CC(C)C)C(=O)O)OC(C)(C)CC4)cc1
Class label: Not met

Attention now shifts to the item below.
Strictly below 3 in logP at 72 h? CC[C@H](C)[C@H](NC(=O)Oc1c(-c2ccc(OC)cc2)oc2c3c(cc(O)c2c1=O)OC(C)(C)CC3)C(=O)O
Met

====

The following compounds are shown together with reported half-life values.
assay: Stability in Sprague-Dawley rat liver homogenates assessed as half life at pH 7.4 by HPLC analysis; format: ADME, tissue-based
Reply numerically in h, unit not repeated.

COc1ccc(-c2oc3c4c(cc(O)c3c(=O)c2OC(=O)N[C@H](C(=O)O)C(C)C)OC(C)(C)CC4)cc1 has a reported half-life of 7.99

CC[C@H](C)[C@H](NC(=O)Oc1c(-c2ccc(OC)cc2)oc2c3c(cc(O)c2c1=O)OC(C)(C)CC3)C(=O)O has a reported half-life of 4.62

COc1ccc(-c2oc3c4c(cc(O)c3c(=O)c2OC(=O)N[C@@H](CC(C)C)C(=O)O)OC(C)(C)CC4)cc1 has a reported half-life of 8.6

COc1ccc(-c2oc3c4c(cc(O)c3c(=O)c2OC(=O)NCC(=O)O)OC(C)(C)CC4)cc1 has a reported half-life of 1.96

COc1ccc(-c2oc3c4c(cc(O)c3c(=O)c2OC(=O)N[C@@H](Cc2ccccc2)C(=O)O)OC(C)(C)CC4)cc1 has a reported half-life of 6.04

====

assay: Stability in Sprague-Dawley rat blood homogenates assessed as half life at pH 7.4 by HPLC analysis; assay type: ADME, tissue-based
Experimental endpoint: half-life (min)
Reply numerically in min, unit not repeated.

Example compounds with recorded half-life:
Compound: COc1ccc(-c2oc3c4c(cc(O)c3c(=O)c2OC(=O)N[C@@H](CC(C)C)C(=O)O)OC(C)(C)CC4)cc1
Measurement unit: min
half-life: 30
//
Compound: COc1ccc(-c2oc3c4c(cc(O)c3c(=O)c2OC(=O)NCC(=O)O)OC(C)(C)CC4)cc1
Measurement unit: min
half-life: 15
//
Compound: CC[C@H](C)[C@H](NC(=O)Oc1c(-c2ccc(OC)cc2)oc2c3c(cc(O)c2c1=O)OC(C)(C)CC3)C(=O)O
Measurement unit: min
half-life: 21.6
//
Compound: COc1ccc(-c2oc3c4c(cc(O)c3c(=O)c2OC(=O)N[C@@H](Cc2ccccc2)C(=O)O)OC(C)(C)CC4)cc1
Measurement unit: min
half-life: 27

Read the next record carefully.
COc1ccc(-c2oc3c4c(cc(O)c3c(=O)c2OC(=O)N[C@H](C(=O)O)C(C)C)OC(C)(C)CC4)cc1 has a reported half-life of 28.2

====

assay: Tmax in Sprague-Dawley rat at 20 mg/kg, po measured upto 12 hrs by HPLC-MS/MS analysis; format: ADME, organism-based; conditions: in vivo
Experimental endpoint: Tmax (h)
Reply numerically in h, unit not repeated.

COc1ccc(-c2oc3c4c(cc(O)c3c(=O)c2OC(=O)N[C@@H](CC(C)C)C(=O)O)OC(C)(C)CC4)cc1 has a reported Tmax of 1

====

test: Chemical stability of the compound assessed as half life at pH 1.2 by HPLC analysis; assay type: physicochemical; settings: buffer
Experimental endpoint: half-life

Example compounds with recorded half-life:
Compound: COc1ccc(-c2oc3c4c(cc(O)c3c(=O)c2O)OC(C)(C)CC4)cc1
half-life: > 12 h
//
Compound: COc1ccc(-c2oc3c4c(cc(O)c3c(=O)c2OC(=O)NCC(=O)O)OC(C)(C)CC4)cc1
half-life: > 12 h
//
Compound: COc1ccc(-c2oc3c4c(cc(O)c3c(=O)c2OC(=O)N[C@H](C(=O)O)C(C)C)OC(C)(C)CC4)cc1
half-life: > 12 h
//
Compound: CC[C@H](C)[C@H](NC(=O)Oc1c(-c2ccc(OC)cc2)oc2c3c(cc(O)c2c1=O)OC(C)(C)CC3)C(=O)O
half-life: > 12 h
//
Compound: COc1ccc(-c2oc3c4c(cc(O)c3c(=O)c2OC(=O)N[C@@H](CC(C)C)C(=O)O)OC(C)(C)CC4)cc1
half-life: > 12 h

COc1ccc(-c2oc3c4c(cc(O)c3c(=O)c2OC(=O)N[C@@H](Cc2ccccc2)C(=O)O)OC(C)(C)CC4)cc1 has a reported half-life of > 12 h
